Value source: ChEMBL document CHEMBL5223112

Reported CLint scaled values for the following compounds.
assay: Metabolic stability in mouse liver microsomes assessed as intrinsic clearance; assay type: ADME; settings: read-out: CLH
PROPERTY NAME: CLint scaled

> print(dat)
                              smiles.string         result
1  CCOC1=CS(=O)(=O)c2cc3c(Nc4ccc5scnc5c4)ncnc3cc21   87 mL/min/kg
2  O=S1(=O)C=C(C2CC2)c2cc3ncnc(Nc4ccc5scnc5c4)c3cc21  344 mL/min/kg
3  CC1=C(C)S(=O)(=O)c2cc3c(Nc4ccc5scnc5c4)ncnc3cc21  230 mL/min/kg

###

Biological target: CYP1A2 (Homo sapiens)
Sequence (P05177 whole entry): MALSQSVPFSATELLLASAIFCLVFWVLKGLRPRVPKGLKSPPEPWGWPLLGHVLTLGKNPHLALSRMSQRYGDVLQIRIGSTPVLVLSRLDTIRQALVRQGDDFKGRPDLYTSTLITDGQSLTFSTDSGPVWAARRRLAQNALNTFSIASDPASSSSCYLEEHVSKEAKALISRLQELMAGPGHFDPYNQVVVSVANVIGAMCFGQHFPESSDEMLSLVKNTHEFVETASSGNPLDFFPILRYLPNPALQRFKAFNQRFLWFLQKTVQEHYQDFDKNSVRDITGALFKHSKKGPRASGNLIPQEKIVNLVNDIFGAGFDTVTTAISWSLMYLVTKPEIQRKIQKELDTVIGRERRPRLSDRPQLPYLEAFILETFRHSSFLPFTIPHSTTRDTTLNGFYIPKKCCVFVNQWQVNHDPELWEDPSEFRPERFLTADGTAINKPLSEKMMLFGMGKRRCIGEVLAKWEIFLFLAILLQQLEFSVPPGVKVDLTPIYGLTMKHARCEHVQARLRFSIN
Assay: Inhibition of CYP1A2 (unknown origin) at 10 uM relative to control
Assay type: ADME
Reported inhibition at 10 µM values for the following molecules.
PROPERTY NAME: inhibition at 10 µM (%)

> print(dat)
                              smiles.string  recorded.number
1  CCOC1=CS(=O)(=O)c2cc3c(Nc4ccc5scnc5c4)ncnc3cc21             18.1
2  CC1=C(C)S(=O)(=O)c2cc3c(Nc4ccc5scnc5c4)ncnc3cc21             14.9
3  O=S1(=O)C=C(C2CC2)c2cc3ncnc(Nc4ccc5scnc5c4)c3cc21             19.9

###

Reported inhibition at 10 µM values for the following molecules.
target: CYP3A4 (Homo sapiens); experiment: Inhibition of CYP3A4 (unknown origin) at 10 uM using testosterone as substrate relative to control; format: ADME; details: probe testosterone
Sequence (P08684 whole entry): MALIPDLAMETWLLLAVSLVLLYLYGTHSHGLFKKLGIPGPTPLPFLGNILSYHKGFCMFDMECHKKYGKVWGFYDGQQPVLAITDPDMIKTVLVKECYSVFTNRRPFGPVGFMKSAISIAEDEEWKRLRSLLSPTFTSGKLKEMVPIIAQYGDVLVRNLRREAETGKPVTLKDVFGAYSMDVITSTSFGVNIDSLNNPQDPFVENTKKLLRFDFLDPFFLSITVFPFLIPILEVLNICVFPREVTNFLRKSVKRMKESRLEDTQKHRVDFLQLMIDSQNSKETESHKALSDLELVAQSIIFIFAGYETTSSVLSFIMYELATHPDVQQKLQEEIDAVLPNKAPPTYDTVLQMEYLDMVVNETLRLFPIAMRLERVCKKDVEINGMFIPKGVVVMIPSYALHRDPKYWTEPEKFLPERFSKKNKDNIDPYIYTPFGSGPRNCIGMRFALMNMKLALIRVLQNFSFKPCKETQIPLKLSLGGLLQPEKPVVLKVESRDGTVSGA
PROPERTY NAME: inhibition at 10 µM (%)

> print(dat)
                              smiles.string        property.name  readout.units  recorded.number
1  O=S1(=O)C=C(C2CC2)c2cc3ncnc(Nc4ccc5scnc5c4)c3cc21  inhibition at 10 µM              %             14.3
2  CCOC1=CS(=O)(=O)c2cc3c(Nc4ccc5scnc5c4)ncnc3cc21  inhibition at 10 µM              %            -0.93
3  CC1=C(C)S(=O)(=O)c2cc3c(Nc4ccc5scnc5c4)ncnc3cc21  inhibition at 10 µM              %             6.88
